Taken from patent US20240335420A1.

# pIC50 annotations
Measurement target: human sodium channels Nav 1.7 (Homo sapiens (Human), UniProt Q15858)
Sequence (Q15858 whole entry): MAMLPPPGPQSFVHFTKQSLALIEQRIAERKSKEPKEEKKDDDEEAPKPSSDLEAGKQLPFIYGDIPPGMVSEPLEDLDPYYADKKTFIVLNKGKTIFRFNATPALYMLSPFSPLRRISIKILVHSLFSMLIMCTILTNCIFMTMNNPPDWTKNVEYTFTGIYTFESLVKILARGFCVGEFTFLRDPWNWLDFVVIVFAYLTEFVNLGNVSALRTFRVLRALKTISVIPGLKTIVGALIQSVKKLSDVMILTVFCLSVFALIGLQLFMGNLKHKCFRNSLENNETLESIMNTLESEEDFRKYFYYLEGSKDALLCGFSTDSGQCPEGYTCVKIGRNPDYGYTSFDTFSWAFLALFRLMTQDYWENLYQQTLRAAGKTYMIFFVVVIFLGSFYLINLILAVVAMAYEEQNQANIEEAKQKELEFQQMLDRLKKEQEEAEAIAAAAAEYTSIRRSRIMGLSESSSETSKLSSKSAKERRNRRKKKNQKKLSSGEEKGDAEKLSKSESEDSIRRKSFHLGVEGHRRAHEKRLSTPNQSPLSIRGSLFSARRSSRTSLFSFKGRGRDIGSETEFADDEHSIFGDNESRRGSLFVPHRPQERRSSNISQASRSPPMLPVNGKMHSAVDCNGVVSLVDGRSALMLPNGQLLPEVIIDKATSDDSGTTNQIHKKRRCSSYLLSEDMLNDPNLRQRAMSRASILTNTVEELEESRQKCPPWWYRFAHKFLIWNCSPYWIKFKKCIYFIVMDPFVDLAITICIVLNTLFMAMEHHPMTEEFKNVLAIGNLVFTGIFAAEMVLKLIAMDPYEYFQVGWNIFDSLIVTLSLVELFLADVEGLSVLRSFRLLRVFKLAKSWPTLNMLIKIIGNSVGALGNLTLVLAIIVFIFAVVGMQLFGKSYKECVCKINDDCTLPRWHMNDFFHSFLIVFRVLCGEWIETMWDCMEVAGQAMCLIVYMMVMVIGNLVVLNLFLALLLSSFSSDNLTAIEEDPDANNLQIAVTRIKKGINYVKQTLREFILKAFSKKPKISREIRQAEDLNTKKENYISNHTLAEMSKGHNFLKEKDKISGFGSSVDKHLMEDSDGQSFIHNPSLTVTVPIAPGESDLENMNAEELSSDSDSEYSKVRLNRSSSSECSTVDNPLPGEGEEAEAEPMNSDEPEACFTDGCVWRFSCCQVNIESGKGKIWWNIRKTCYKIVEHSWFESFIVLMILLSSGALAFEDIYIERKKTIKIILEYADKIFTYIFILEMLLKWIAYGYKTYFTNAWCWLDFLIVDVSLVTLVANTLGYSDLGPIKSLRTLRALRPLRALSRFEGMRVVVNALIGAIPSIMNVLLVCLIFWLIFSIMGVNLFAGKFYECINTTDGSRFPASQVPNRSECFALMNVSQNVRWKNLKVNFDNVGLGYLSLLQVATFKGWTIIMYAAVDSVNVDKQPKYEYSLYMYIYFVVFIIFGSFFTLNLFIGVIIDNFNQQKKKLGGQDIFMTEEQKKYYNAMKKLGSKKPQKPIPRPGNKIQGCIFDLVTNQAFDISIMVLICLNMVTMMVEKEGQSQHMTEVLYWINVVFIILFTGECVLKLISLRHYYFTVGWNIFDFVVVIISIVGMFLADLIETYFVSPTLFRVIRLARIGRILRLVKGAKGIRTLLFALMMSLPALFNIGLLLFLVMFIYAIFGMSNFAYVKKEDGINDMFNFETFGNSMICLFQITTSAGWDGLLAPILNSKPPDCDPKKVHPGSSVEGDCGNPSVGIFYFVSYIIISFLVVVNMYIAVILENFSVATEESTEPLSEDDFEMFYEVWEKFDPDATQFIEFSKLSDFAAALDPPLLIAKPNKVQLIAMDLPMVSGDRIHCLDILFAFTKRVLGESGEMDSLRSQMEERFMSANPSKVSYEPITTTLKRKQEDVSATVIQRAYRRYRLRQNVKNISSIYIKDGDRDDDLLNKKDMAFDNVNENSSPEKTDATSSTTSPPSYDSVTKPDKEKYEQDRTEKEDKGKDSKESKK
Assay info: Automated whole-cell voltage-clamp (ScreenPatch 384P), Nav 1.7 sodium current, Protocol 1
Assay type: cell-based
Condition set: Protocol 1 (holding −90 mV, 0.1 Hz); CHO cells expressing human Nav 1.7; room temperature; read-out: Nav1.7 IC50
pIC50: −log10 of the molar value.

Below, 10 compounds whose answers are already recorded.
INSERT INTO results (compound, endpoint_name, test_value) VALUES
  ('CC(C)Oc1ccc(-c2ccnc(C(=O)N/N=C/c3cccs3)c2)cc1 [Compound 47]', 'pIC50', '< 5.00'),
  ('CCOc1ccc(-c2cccc(C(=O)N/N=C/c3cccs3)n2)cc1 [Compound 12]', 'pIC50', 5.72),
  ('CCOc1ccc(-c2ccnc(C(=O)N/N=C/c3cccs3)c2)cc1 [Compound 45]', 'pIC50', '< 5.00'),
  ('CCOc1ccc(-c2cncc(C(=O)N/N=C/c3cc(OC)cc(OC)c3)c2)cc1 [Compound 18]', 'pIC50', 5.15),
  ('COc1cc(/C=N/NC(=O)c2cncc(-c3ccc(OC(F)(F)F)cc3)c2)cc(OC)c1 [Compound 17]', 'pIC50', 5.15),
  ('COc1ccc(-c2cc(C(=O)N/N=C/c3cc(OC)cc(OC)c3)ccn2)cc1 [Compound 29]', 'pIC50', '< 5.00'),
  ('CCOc1ccc(-c2cccc(C(=O)N/N=C/c3cccnc3N3CCOCC3)n2)cc1 [Compound 37]', 'pIC50', 5.06),
  ('CCOc1ccc(-c2cccc(C(=O)N/N=C/c3c(Cl)cccc3Cl)n2)cc1 [Compound 34]', 'pIC50', '< 5.00'),
  ('CCCCOc1ccc(-c2ccnc(C(=O)N/N=C/c3cc(OC)cc(OC)c3)n2)cc1 [Compound 67]', 'pIC50', '< 5.00'),
  ('CCCOc1ccc(-c2cc(C(=O)N/N=C/c3cc(OC)cc(OC)c3)ccn2)cc1 [Compound 30]', 'pIC50', '< 5.00');

Then this compound:
pIC50 for CCOc1ccc(-c2cccc(C(=O)N/N=C/c3ccccc3Cl)n2)cc1 [Compound 33] is < 5.00

###

Measurement target: human sodium channels Nav 1.8 (Homo sapiens (Human))
Sequence (Q9Y5Y9 whole entry): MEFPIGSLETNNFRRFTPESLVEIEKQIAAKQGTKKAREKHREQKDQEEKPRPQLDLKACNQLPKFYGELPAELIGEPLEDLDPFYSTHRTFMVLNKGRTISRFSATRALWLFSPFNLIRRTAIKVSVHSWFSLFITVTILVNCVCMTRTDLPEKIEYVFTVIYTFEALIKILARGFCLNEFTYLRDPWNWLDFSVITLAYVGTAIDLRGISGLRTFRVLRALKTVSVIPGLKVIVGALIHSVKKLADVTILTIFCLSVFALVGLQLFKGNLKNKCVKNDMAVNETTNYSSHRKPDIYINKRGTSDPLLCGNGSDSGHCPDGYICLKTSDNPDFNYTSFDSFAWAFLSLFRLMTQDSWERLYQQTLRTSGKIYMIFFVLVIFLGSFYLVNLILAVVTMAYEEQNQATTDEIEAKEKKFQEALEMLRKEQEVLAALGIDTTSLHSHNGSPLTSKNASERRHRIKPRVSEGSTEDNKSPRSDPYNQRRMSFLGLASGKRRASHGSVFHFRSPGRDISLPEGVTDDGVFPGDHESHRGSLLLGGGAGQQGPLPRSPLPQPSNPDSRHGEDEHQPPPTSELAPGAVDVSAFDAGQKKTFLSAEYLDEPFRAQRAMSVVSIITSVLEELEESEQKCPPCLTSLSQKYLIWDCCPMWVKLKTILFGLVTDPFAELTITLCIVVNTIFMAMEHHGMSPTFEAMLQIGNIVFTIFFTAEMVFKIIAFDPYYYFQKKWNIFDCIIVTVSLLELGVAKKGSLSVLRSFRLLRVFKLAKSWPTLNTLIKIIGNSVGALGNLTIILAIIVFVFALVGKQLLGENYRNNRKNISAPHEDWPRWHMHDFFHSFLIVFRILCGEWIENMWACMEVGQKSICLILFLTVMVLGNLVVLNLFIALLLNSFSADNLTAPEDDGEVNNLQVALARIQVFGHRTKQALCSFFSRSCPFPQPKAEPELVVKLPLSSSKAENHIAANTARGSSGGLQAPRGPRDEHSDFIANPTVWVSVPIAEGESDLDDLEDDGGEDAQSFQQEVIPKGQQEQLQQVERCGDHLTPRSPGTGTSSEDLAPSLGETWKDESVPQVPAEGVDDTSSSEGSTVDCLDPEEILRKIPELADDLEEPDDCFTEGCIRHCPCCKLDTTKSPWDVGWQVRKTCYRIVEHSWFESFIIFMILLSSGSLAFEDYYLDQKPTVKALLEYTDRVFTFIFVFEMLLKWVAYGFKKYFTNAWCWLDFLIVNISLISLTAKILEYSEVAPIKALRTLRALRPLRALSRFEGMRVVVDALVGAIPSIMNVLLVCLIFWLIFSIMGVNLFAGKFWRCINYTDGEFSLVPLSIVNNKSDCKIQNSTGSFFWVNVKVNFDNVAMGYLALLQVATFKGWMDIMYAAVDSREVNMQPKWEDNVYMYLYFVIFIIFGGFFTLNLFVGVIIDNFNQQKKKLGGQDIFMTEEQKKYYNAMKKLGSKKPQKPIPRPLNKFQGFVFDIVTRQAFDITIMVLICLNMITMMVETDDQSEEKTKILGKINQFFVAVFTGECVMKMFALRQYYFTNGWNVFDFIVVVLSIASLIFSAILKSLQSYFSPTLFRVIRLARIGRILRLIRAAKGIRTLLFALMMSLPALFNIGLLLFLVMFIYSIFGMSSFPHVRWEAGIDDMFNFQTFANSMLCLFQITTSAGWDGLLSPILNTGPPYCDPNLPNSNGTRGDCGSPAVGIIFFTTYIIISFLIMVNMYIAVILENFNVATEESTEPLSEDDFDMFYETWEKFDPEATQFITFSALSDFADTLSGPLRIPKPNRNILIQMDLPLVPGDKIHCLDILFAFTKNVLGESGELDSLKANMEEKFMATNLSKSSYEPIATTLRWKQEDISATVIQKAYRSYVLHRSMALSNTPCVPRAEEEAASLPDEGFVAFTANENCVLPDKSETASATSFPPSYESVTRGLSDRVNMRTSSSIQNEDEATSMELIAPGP
Assay info: Automated whole-cell voltage-clamp (ScreenPatch 384P), Nav 1.8 sodium current, Protocol 1
Format: cell-based
Condition set: Protocol 1 (holding −90 mV, 0.1 Hz); CHO cells expressing human Nav 1.8; room temperature; read-out: Nav1.8 IC50
pIC50: −log10 of the molar value.
Endpoint name: pIC50

INSERT INTO measurements (compound, test_value) VALUES
  ('COc1cc(/C=N/NC(=O)c2cncc(-c3ccc(OC4CCCC4)cc3)c2)cc(OC)c1 [Compound 28]', '< 5.00'),
  ('COc1ccc(-c2cc(C(=O)N/N=C/c3cc(OC)cc(OC)c3)ccn2)cc1 [Compound 29]', '< 5.00'),
  ('CC(C)Oc1ccc(-c2ccc(C(=O)N/N=C/c3cccs3)o2)cc1 [Compound 7]', '< 5.20'),
  ('COc1cc(/C=N/NC(=O)c2ccnc(-c3ccc(OC4CCCC4)cc3)n2)cc(OC)c1 [Compound 55]', '< 5.00'),
  ('COc1ccc(-c2nccc(C(=O)N/N=C/c3cc(OC)cc(OC)c3)n2)cc1 [Compound 57]', '< 5.00'),
  ('COc1cc(/C=N/NC(=O)c2cncc(-c3ccc(OC(F)(F)F)cc3)c2)cc(OC)c1 [Compound 17]', 5.17),
  ('CCOc1ccc(-c2cccc(C(=O)N/N=C/c3ccccc3Cl)n2)cc1 [Compound 33]', '< 5.00'),
  ('CCOc1ccc(-c2ccnc(C(=O)N/N=C/c3cc(OC)cc(OC)c3)c2)cc1 [Compound 44]', '< 5.00'),
  ('CCCCOc1ccc(-c2nccc(C(=O)N/N=C/c3cc(OC)cc(OC)c3)n2)cc1 [Compound 59]', '< 5.00'),
  ('CCOc1ccc(-c2cccc(C(=O)N/N=C/c3c(F)cccc3Cl)n2)cc1 [Compound 35]', '< 5.00');

Lab note: compound CCCOc1ccc(-c2nccc(C(=O)N/N=C/c3cc(OC)cc(OC)c3)n2)cc1 [Compound 58] tested on human sodium channels Nav 1.8 (Homo sapiens (Human)); recorded pIC50 was < 5.00

Lab note: compound COc1cc(/C=N/NC(=O)c2cncc(-c3ccc(Cl)cc3)c2)cc(OC)c1 [Compound 16] tested on human sodium channels Nav 1.8 (Homo sapiens (Human)); recorded pIC50 was 5.37
